biological target: Alpha-2C adrenergic receptor (Homo sapiens); experiment: compounds altering alpha2C-coupled GIRK flux – cell-based, HEK293 alpha2C/GIRK1/2, thallium flux, primary screen (AID 624); settings: thallium flux BTC fluorescence, at 10 µM, actives lie on both sides;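 also: slope of fluorescence ratio to pre-addition baseline per second over 15 to 24 s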
Could you please mark 1 for values of slope below 0.005 and 0 for values at or above it?

See these solved cases before continuing.
Ask: Please indicate whether the reported slope of CCCNC(=O)C1CCN(S(=O)(=O)c2ccc3nc4c(c(C(=O)O)c3c2)CCCCC4)CC1 is strictly below 0.005.
Result: 0

Ask: Next: O=C(CSCc1cccc(F)c1)N1CCN(c2ccccc2)CC1
Result: 1

Ask: Next: CC1(C)Cc2c(sc3c2c(=N)n(Cc2ccco2)c(=O)n3Cc2ccccc2)CO1
Result: 0

Ask: Next: CC(C)NC(=O)c1ccccc1NC(=O)CCS(=O)(=O)Cc1ccccc1
Result: 1

# next compound below
Ask: Please indicate whether the reported slope of Cc1ccc2c(c1)c1c3n2CC(=C2C(=O)OC(C)(C)OC2=O)NC3CCC1 (stereo not drawn) is strictly below 0.005.
Result: 1

====

target: Alpha-2C adrenergic receptor (Homo sapiens) (UniProt P18825); experiment: compounds altering alpha2C-coupled GIRK flux – cell-based, HEK293 alpha2C/GIRK1/2, thallium flux, primary screen (AID 624); conditions: thallium flux BTC fluorescence, at 10 µM, actives lie on both sides;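 also: slope of fluorescence ratio to pre-addition baseline per second over 15 to 24 s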
Sequence (P18825 whole entry, looked up): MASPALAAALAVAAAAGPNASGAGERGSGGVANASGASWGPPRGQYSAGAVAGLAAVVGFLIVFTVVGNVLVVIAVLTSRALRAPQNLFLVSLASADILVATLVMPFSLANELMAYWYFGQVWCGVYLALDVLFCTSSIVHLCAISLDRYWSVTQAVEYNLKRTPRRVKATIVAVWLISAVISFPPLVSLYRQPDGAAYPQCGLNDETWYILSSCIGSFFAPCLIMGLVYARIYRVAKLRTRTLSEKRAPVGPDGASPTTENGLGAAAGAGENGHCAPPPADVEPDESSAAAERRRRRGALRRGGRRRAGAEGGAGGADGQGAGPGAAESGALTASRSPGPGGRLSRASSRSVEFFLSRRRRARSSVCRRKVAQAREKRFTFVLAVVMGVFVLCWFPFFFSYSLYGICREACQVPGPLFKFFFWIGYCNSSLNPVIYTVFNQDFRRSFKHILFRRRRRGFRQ
Listing: slope of selected molecules
Reply briefly: the number, and no unit.

Ask: // query slope value for entry O=c1cc(CSc2nnnn2-c2ccccc2)nc2scc(-c3ccccc3)n12
Result: 0.004

====

experiment: reduction of polyQ htt aggregates in cells – imaging, exon1htt(103Q)mCFP cells, high-content imaging, primary screen (AID 483); conditions: exon1htt(103Q)mCFP cell line, aggregate imaging, at 2 µM; stronger effect = higher value;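 also: compound exposure lasted 3 days before fixation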
Calls of active or inactive are those of the source.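 The calls were made as follows: active = visual image review flags a hit and inhibition of aggregation exceeds 20%; inconclusive = visual hit but inhibition at or below 20%; inactive = no hit on visual image review.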
Listing: inhibition of aggregation of selected molecules

See these solved cases before continuing.
Ask: // query inhibition of aggregation value for entry Cc1ccc(-c2nnc3c4ccccc4c(C)nn23)cc1S(=O)(=O)N1CCN(C)CC1
Result: 3.8% (inactive)

Ask: Next: Cc1ccc(-c2nc3cc(N)ccc3o2)cc1
Result: 11.7% (inactive)

Ask: Next: Cn1c(CN2CCOCC2)nnc1SCC(=O)NCCc1ccccc1
Result: 0.2% (inactive)

Ask: Next: O=C(CSc1nnc(-c2cnccn2)n1Cc1ccco1)c1ccc(Cl)cc1
Result: -32.9% (inactive)

Ask: Next: O=C(Nc1ccc(F)cc1)N(Cc1ccco1)Cc1cc2cc3c(cc2[nH]c1=O)OCO3
Result: 6.1% (inactive)

Continuing:
Ask: // query inhibition of aggregation value for entry COc1ccc(OCc2cccc(C(=O)O)c2)cc1
Result: -9.3% (inactive)

====

experiment: inhibitors of larval lipid processing in zebrafish, primary screen, whole organism, PED6 fluorescence, gall bladder and intestine (AID 686); settings: Zebrafish larvae PED6 lipid processing, fluorescence scoring; screened at 20 µM (by protocol);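 also: larvae 5 to 7 days old with five fish per well; signal comes from phospholipase A2 cleavage of quenched PED6 carried via bile; overnight exposure to compound and PED6 before scoring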
Calls of active or inactive are those of the source.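 The calls were made as follows: active = a full or partial loss of lipid-probe fluorescence in the fish gall bladder, intestine or both, judged by eye; inactive = no fluorescence loss, or compound toxic to the fish.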
Give your call using only these classes: active, inactive

Ask: Tell me the assay call for COc1ccc(OC)c(Nc2nc(-c3cccs3)cs2)c1 please.
Result: active

Ask: Next: COc1ccc(N=C2C(=O)Nc3ccccc32)cc1
Result: inactive

Ask: Next: CC(=O)/C(C[N+]1(C)CCCCC1)=N\O
Result: inactive

Ask: Next: Cc1cc(C)nc(SCc2nnc(SCC(=O)Nc3ncc(C)s3)n2Cc2ccco2)n1
Result: inactive

Ask: Next: O=C(NCc1ccco1)c1cccc(S(=O)(=O)N2CCCCC2)c1
Result: inactive

====

assay: endothelial E-selectin expression blockers – imaging, HUVEC, immunofluorescence, MLSMR starter and 10KST1 sets, primary screen (AID 487); settings: HUVEC TNFalpha-induced E-selectin immunofluorescence imaging, at 2 µM; stronger effect = higher value;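 as to inhibition: signal is fraction of cell area covered by stained E-selectin grains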
Listing: inhibition of selected compounds
Response body: numeric value in %, unit text excluded.

See these solved cases before continuing.
Ask: // query inhibition value for entry CCN(C(=O)Cc1c(C(=O)O)[nH]c2ccccc12)c1cc(OC)ccc1OC
Result: -36

Ask: Next: O=C(CN1C(=O)CSC1=O)Nc1ccc(N2CCOCC2)cc1
Result: -27.8

Ask: Next: NC(=O)CSc1nnc(-c2ccc(O)cc2)n1Cc1ccco1
Result: -112

Continuing:
Ask: // query inhibition value for entry Cc1cc2ncc(-c3ccc(Cl)cc3)c(N)n2n1
Result: -36.3

Ask: Next: CC(=O)c1cccc(NC(=O)N2C3CCC2CC(O)(c2cccnc2)C3)c1 (stereo unspecified)
Result: -27.6

====

Listing: inhibition of selected compounds
assay: endothelial E-selectin expression blockers – imaging, HUVEC, immunofluorescence, MLSMR starter and 10KST1 sets, primary screen (AID 487); conditions: HUVEC TNFalpha-induced E-selectin immunofluorescence imaging, at 2 µM; stronger effect = higher value;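 as to inhibition: signal is fraction of cell area covered by stained E-selectin grains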
Response body: numeric value in %, unit text excluded.

See these solved cases before continuing.
Ask: // query inhibition value for entry COC(=O)c1ccc(CSc2nc3c(cnn3-c3ccc(C)c(C)c3)c(=O)[nH]2)o1
Result: -55.6

Ask: Next: COc1cccc(-c2csc3nc[nH]c(=O)c23)c1
Result: -72.4

Ask: Next: Cc1cc(C(=O)Nc2sc3c(c2C#N)CCCCC3)cs1
Result: -7.5

Ask: Next: CC(C)(C)c1cc(NC(=O)c2cc(F)c(F)c(F)c2F)no1
Result: -96.2

Ask: Next: COCCn1c(=O)[nH]c2cc(C(=O)N3CCN(c4ccccc4OC)CC3)ccc2c1=O
Result: -28.7

# evaluate next
Ask: // query inhibition value for entry CC(C)CCn1c(N)c(S(=O)(=O)c2cccs2)c2nc3ccccc3nc21
Result: -67.7

====

experiment: blockers of RIG-like receptor reporter activation – cell-based, Sendai virus stimulus, luciferase, 10K MLSCN set, TLR/RLR signaling modifier project, primary screen (AID 602276); settings: HEK293 RL24 IRF3 luciferase reporter, at 10 µM, stronger effect = higher value;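 also: firefly luciferase from ISG56 promoter only with Renilla not read in this screen; 0% = Sendai virus plus DMSO and 100% = medium plus DMSO without virus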
ATTRIBUTE_MEASURED: inhibition (%)
Response body: numeric value in %, unit text excluded.

Ask: // query inhibition value for entry COC(=O)C(C)Sc1nc2c(c(=O)n(C)c(=O)n2C)n1Cc1cccc(C)c1 (centres undefined)
Result: 18.9

# evaluate next
Ask: // query inhibition value for entry CC(=O)n1nc(-c2ccco2)nc1SCc1ccccc1
Result: -22.5

====

target: Voltage-gated potassium channel subunit beta-2 (Rattus norvegicus) (UniProt P62483); assay: enhancers of rat Kvbeta2 NADPH turnover – biochemical, NADPH fluorescence, primary screen (AID 623); conditions: Recombinant KvBeta, NADPH fluorescence decrease slope, 10 min; at 10 µM; stronger effect = lower value;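 also: fluorescence intensity change per second fitted from 20 to 320 s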
Sequence (P62483 whole entry, looked up): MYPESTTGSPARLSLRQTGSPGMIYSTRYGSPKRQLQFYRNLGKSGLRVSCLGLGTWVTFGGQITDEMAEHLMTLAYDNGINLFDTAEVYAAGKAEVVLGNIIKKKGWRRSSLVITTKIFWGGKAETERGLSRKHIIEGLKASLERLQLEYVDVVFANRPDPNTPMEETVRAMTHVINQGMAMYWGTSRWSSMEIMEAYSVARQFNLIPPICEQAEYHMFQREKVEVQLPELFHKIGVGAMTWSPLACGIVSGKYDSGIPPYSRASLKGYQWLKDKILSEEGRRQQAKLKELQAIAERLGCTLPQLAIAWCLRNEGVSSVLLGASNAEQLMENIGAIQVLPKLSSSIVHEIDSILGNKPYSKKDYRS
ATTRIBUTE_MEASURED: NADPH fluorescence slope
Reply briefly: the number, and no unit.

See these solved cases before continuing.
Ask: // query NADPH fluorescence slope value for entry COc1ccccc1OCc1ccc(C(=O)Nc2ccncc2)o1
Result: -5.2e-05

Ask: Next: CCOc1ccc(NC2c3ccccc3C(=O)N2Cc2ccco2)cc1 (stereo unspecified)
Result: 1.5e-05

Ask: Next: CC(C)(C)c1ccc(C(=O)N2CCC(C(=O)NCc3ccncc3)CC2)cc1
Result: -4.7e-05

Ask: Next: Nc1sccc1C(=O)c1ccccc1
Result: 7.1e-06

Ask: Next: CC(NO)C(C)(C)NO (stereo unspecified)
Result: 9e-05

Ask: Next: CC1CCN(C(=O)c2cc(-c3ccc(Cl)c(Cl)c3)on2)CC1
Result: -3.4e-05

Ask: Next: COCCCN1C(=O)C(=O)/C(=C(/O)c2ccc(OC)cc2)C1c1ccc(O)c(OC)c1 (stereo unspecified)
Result: -2.6e-05

Ask: Next: COC(=O)C1=C(C)N(c2ccc(C(=O)OC)cc2)C(=O)C1
Result: -4e-05

Ask: Next: COc1cc2c(C#N)c(N3CCN(c4ccccc4OC)CC3)nc(N)c2c(N)n1
Result: 1.8e-06

Ask: Next: O=C(CSc1nc(C2CCCCC2)n(-c2ccccc2)n1)NCCN1C(=O)CSC1=O
Result: -4.9e-05

# evaluate next
Ask: // query NADPH fluorescence slope value for entry CC(=O)N1c2c(cc(Br)cc2S(=O)(=O)N2CCN(c3ccccn3)CC2)CC1C (stereo unspecified)
Result: -0.000101

====

experiment: endothelial E-selectin expression blockers – imaging, HUVEC, immunofluorescence, MLSMR starter and 10KST1 sets, primary screen (AID 487); conditions: HUVEC TNFalpha-induced E-selectin immunofluorescence imaging, at 2 µM; measured here: cell number, toxicity;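 as to nuclei count: 100% = median nuclei count of all wells on the same plate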
Listing: nuclei count of selected molecules
Response body: numeric value in %, unit text excluded.

See these solved cases before continuing.
Ask: // query nuclei count value for entry CNC(=O)CSc1nnc(-c2cccc(S(=O)(=O)N3CCOCC3)c2)n1-c1ccc(F)cc1
Result: 106

Ask: Next: Cc1cc2oc(=O)cc(CN3CCCCC3)c2cc1C(C)C
Result: 56.9

Ask: Next: COCCNC(=O)CCCCCN1C(=O)CCC1=O
Result: 71.9

Ask: Next: CC(C)(C)NS(=O)(=O)c1ccc(CCC(=O)O)cc1
Result: 110

Ask: Next: CCOC(=O)C1C(=O)NC(SCC(=O)Nc2nccs2)=C(C#N)C1c1ccccc1OCC (stereo unspecified)
Result: 104

Ask: Next: COc1cc(C2C(C#N)=C(N)OC3=C2C(=O)CC(C)(C)C3)ccc1OC(=O)N1CCOCC1 (stereo unspecified)
Result: 112

Continuing:
Ask: // query nuclei count value for entry CCC12CN3CC(CC)(CN(C1)C3c1ccc(OC(C)C)cc1)C2=O (stereo unspecified)
Result: 94.3

Ask: Next: CCNc1ccc2c(Cl)cc(=O)oc2c1
Result: 98.3

Ask: Next: CC(C)(CO)NC(=O)CCCOc1ccc(Cl)cc1Cl
Result: 98.8

Ask: Next: COc1ccc(CNC(=O)c2ccc(CN3CCOCC3)cc2)cc1
Result: 147

Ask: Next: CN/C=C1\C(=O)C(C)(C)Oc2ccc3ccc(=O)oc3c21
Result: 129
